protocol: qHTS profiling of the MIPE4 collection as inhibitors of Plasmodium falciparum (DD2) proliferation (AID 743345)
assay conditions: P. falciparum Dd2 in erythrocytes, SYBR Green DNA, 72 h; at 28.5 µM (top of the series) unless noted
Experimental: Plasmodium falciparum is a virulent malarial parasite that kills 1-2 million people worldwide each year. […] Because mature erythrocytes lack DNA, only Plasmodium-derived DNA is detected. The SYBR Green viability assay was adapted from a method described previously (Plouffe et al., 2008). […] The following morning, fluorescence intensity at 485(14) nm excitation and 535(25) nm emission wavelengths was measured on an EnVision (Perkin Elmer) plate reader. […]
quantity measured: parasite growth remaining, % of DMSO control (lower = more inhibition) (%)
Numeric answer only, unit % assumed.

As a guide, the following entries are already answered.
- compound: "CC(C)c1onc(-c2c(Cl)cccc2Cl)c1COc1ccc(C=Cc2cccc(C(=O)O)c2)c(Cl)c1"
  assay result: 94.1
- compound: "CCC(c1ccc(O)cc1)C(CC)c1ccc(O)cc1 (stereo not drawn)"
  assay result: 90
- compound: "CN(CC=CC#CC(C)(C)C)Cc1cccc2ccccc12"
  assay result: 79.2
- compound: "C[C@]12C=CC(=O)C=C1CC[C@@H]1[C@@H]2[C@@H](O)C[C@@]2(C)[C@@H]1CC[C@]2(O)C(=O)CO"
  assay result: 100
- compound: "CCOC(=O)N1c2ccc(C(F)(F)F)cc2[C@@H](N(Cc2cc(C(F)(F)F)cc(C(F)(F)F)c2)C(=O)OC)C[C@H]1CC"
  assay result: 7.82
- compound: "Cc1c(-c2cccc3c(CCCOc4cccc5ccccc45)c(C(=O)O)n(Cc4cccnc4)c23)c(COc2ccc(N3CCN([S+](=O)([O-])N(C)C)CC3)cc2)nn1C"
  assay result: 7.43

Here is the next item to consider.
parasite growth remaining, % of DMSO control (lower = more inhibition) recorded for this compound, CN(C)c1ccc(-c2nc3ncc(Cl)c(N4CCN(CC(=O)Nc5nccs5)CC4)c3[nH]2)cc1 , is 9.69

====

protocol: qHTS of pediatric cancer cell lines to identify multiple opportunities for drug repurposing: Primary screen for RD cells (AID 1347104); also: nearly all actives have a fitted effect of over 55% in size
assay conditions: RD rhabdomyosarcoma viability, CellTiter-Glo luminescence, 48 h; series mostly up to 46 µM
Records with an inconclusive call do not appear. Calls of active or inactive are those of the source. Calls come from the whole dose curve; as a rule, active = well fitted cell-killing curve with a large enough effect; inconclusive = small, poorly fitted or top-dose-only effect; inactive = flat fitted curve, though single readings scatter.
Pick one and only one: True for active, False for inactive

- compound: "COc1ccnc(CS(=O)c2nc3ccc(OC(F)F)cc3[nH]2)c1OC (centres undefined)"
  label: "False"
- compound: "N#CC(=C1Nc2ccccc2S1)c1ccnc(OCc2ccc(CN3CCOCC3)cc2)n1"
  label: "True"
- compound: "Cc1[nH]c(C=C2C(=O)Nc3ccc(S(=O)(=O)N(C)c4cccc(Cl)c4)cc32)c(C)c1C(=O)N1CCN(C)CC1"
  label: "True"
- compound: "COc1cccc(OC)c1-c1cc(C(=O)NC2(C(=O)O)C3CC4CC(C3)CC2C4)nn1-c1ccnc2cc(Cl)ccc12 (centres undefined)"
  label: "False"
- compound: "O=C1C(CCC(O)c2ccc(F)cc2)C(c2ccc(O)cc2)N1c1ccc(F)cc1 (centres undefined)"
  label: "False"

Query string: What call does the record list for CNC(=O)[C@H](CC1=CN=C2C=CCC=C12)NC(=O)[C@@H](CC(=O)NO)CC(C)C ?
Result string: True

Query string: What call does the record list for CC=C1C2C=C(C)CC1(N)c1ccc(=O)[nH]c1C2 (centres undefined) ?
Result string: False

Query string: What call does the record list for CC(C)CNc1ccnc(NCc2csc(-c3ccccc3)n2)n1 ?
Result string: True

Query string: What call does the record list for CCOC(=O)N1CCN([N+]([O-])=NOc2cc(ON=[N+]([O-])N3CCN(C(=O)OCC)CC3)c([N+](=O)[O-])cc2[N+](=O)[O-])CC1 ?
Result string: False

Data origin: PubChem BioAssay (NCATS)
